- Test system: CAL-120
- METHOD DESCRIPTION: normalised response (% of control), CellTox Green; higher = less cell death (100 = DMSO, 0 = benzethonium chloride kill control)
- RECORDED CONDITIONS: incubation time: 72 h
MEASURED ATTRIBUTE: normalised response (%)
Give a bare numeral; the unit % is implied.

The examples below pair each entry with its known result.
* CS(=O)(=O)OCCCCOS(C)(=O)=O [Busulfan] (1000 nM) | 97.8
* CN(c1ccccc1CNc1nc(Nc2ccc3c(c2)CC(=O)N3)ncc1C(F)(F)F)S(C)(=O)=O (10000 nM) | 89.1
* Cn1c(=O)c(F)c(Nc2ccc(I)cc2F)c2c(=O)n(C[C@@H](O)CO)cnc21 [TAK-733] (100 nM) | 97
* COc1cc(Nc2ncc(F)c(Nc3ccc4c(n3)NC(=O)C(C)(C)O4)n2)cc(OC)c1OC [Tamatinib] (1000 nM) | 105

# evaluate next
Asked: Which normalised response is listed for O=c1[nH]cc(F)c(=O)[nH]1 [Fluorouracil] (1000 nM) ?
Given back: 105

* * *

- System: CAL-51
- METHOD DESCRIPTION: normalised viability (% of control), CellTiter-Blue; higher = more viable cells (about 100 = DMSO control)
- RECORDED CONDITIONS: incubation time: 72 h
MEASURED ATTRIBUTE: normalised viability
Please answer in the form of a number followed by its unit of measurement.

Please review the following examples before continuing.
- C[C@@H]1C=C2C(=O)O[C@@H]3CC[C@H](C1)[C@]23O [Galiellalactone] (5000 nM): 105%
- COC1=CC(c2cc3ccccc3[nH]2)=N/C1=C\c1[nH]c(C)cc1C [Obatoclax] (1000 nM): 72.3%
- O=C(c1ccc(OCCN2CCCCC2)cc1)c1c(-c2ccc(O)cc2)sc2cc(O)ccc12 [Raloxifene] (1000 nM): 91.5%

Moving on to another molecule below.
Asked: Which normalised viability is reported with CAL-51 for this entry: c1ccc(C2CN3CCSC3=N2)cc1 (centres undefined) [Tetramisole] (1000 nM) ?
Given back: 90.2%

* * *

- Test system: CAL-120
- METHOD DESCRIPTION: normalised response (% of control), CellTiter-Glo; higher = more viable cells (100 = DMSO, 0 = benzethonium chloride kill control)
- RECORDED CONDITIONS: incubation time: 72 h
Please use Y whenever normalised response is not below 50%, and N whenever it is.

Please review the following examples before continuing.
* Cn1cnc2c(F)c(Nc3ccc(Br)cc3F)c(C(=O)NOCCO)cc21 [MEK-162] (1000 nM) | Y
* C[C@@H]1C=C2C(=O)O[C@@H]3CC[C@H](C1)[C@]23O [Galiellalactone] (50000 nM) | Y

Asked: Check this compound for normalised response at or above 50%: CN(c1ccccc1CNc1nc(Nc2ccc3c(c2)CC(=O)N3)ncc1C(F)(F)F)S(C)(=O)=O (10000 nM)
Given back: N

Asked: Record CCOc1cc2ncc(C#N)c(Nc3ccc(OCc4ccccn4)c(Cl)c3)c2cc1NC(=O)/C=C/CN(C)C [Neratinib] (1000 nM) ; criterion: normalised response no lower than 50%. Met?
Given back: Y

Asked: Would you say COC1=C2C[C@@H](C)C[C@H](OC)[C@H](O)[C@@H](C)/C=C(\C)[C@H](OC(N)=O)[C@@H](OC)/C=C\C=C(/C)C(=O)NC(=CC1=O)C2=O [Geldanamycin] (10000 nM) shows normalised response at minimum 50%?
Given back: N

* * *

- System: MDA-MB-468
- RECORDED CONDITIONS: 72 h
MEASURED ATTRIBUTE: EC50, CellTox Green (nM)
Report as a plain number; the unit nM is understood.

Look over these answered cases.
- CC(=O)O[C@H]1C(=O)[C@@]2(C)[C@H]([C@H](OC(=O)c3ccccc3)[C@]3(O)C[C@H](OC(=O)[C@H](O)[C@@H](NC(=O)c4ccccc4)c4ccccc4)C(C)=C1C3(C)C)[C@]1(OC(C)=O)CO[C@@H]1C[C@@H]2O: 4.52
- COc1ncc(-c2ccc3nccc(-c4ccnnc4)c3c2)cc1NS(=O)(=O)c1ccc(F)cc1F: 160
- COC(=O)C[C@](O)(CCCC(C)(C)O)C(=O)O[C@@H]1C(OC)=C[C@]23CCCN2CCc2cc4c(cc2[C@H]13)OCO4: 388

Kindly review the next compound as well.
Asked: Tell me the measured EC50, CellTox Green of CCOc1cc2ncc(C#N)c(Nc3ccc(OCc4ccccn4)c(Cl)c3)c2cc1NC(=O)/C=C/CN(C)C , please.
Given back: 149

* * *

- Tested on: MDA-MB-453
- RECORDED CONDITIONS: 72 h
In this section, each of the molecules is paired with its reported EC50, CellTiter-Blue viability.
Supply the numeric figure in nM, leaving out any unit text.

- Cn1c(=O)c(F)c(Nc2ccc(I)cc2F)c2c(=O)n(C[C@@H](O)CO)cnc21: 249
- COc1cccc2c1C(=O)c1c(O)c3c(c(O)c1C2=O)C[C@@](O)(C(C)=O)C[C@@H]3O[C@H]1C[C@H](N)[C@H](O)[C@H](C)O1: 465
- CCS(=O)(=O)c1cccc(-c2cc(C(=O)NC3CCN(C)CC3)c(C)c3[nH]c4ncc(C)cc4c23)c1: 12.8
- CC(=O)O[C@H]1C(=O)[C@@]2(C)[C@H]([C@H](OC(=O)c3ccccc3)[C@]3(O)C[C@H](OC(=O)[C@H](O)[C@@H](NC(=O)c4ccccc4)c4ccccc4)C(C)=C1C3(C)C)[C@]1(OC(C)=O)CO[C@@H]1C[C@@H]2O: 4.03
- CS(=O)(=O)CCNCc1ccc(-c2ccc3ncnc(Nc4ccc(OCc5cccc(F)c5)c(Cl)c4)c3c2)o1: 75.1
- COC(=O)C[C@](O)(CCCC(C)(C)O)C(=O)O[C@@H]1C(OC)=C[C@]23CCCN2CCc2cc4c(cc2[C@H]13)OCO4: 24.7

Asked: Name the reported EC50, CellTiter-Blue viability value associated with the molecule COC1=CC(c2cc3ccccc3[nH]2)=N/C1=C\c1[nH]c(C)cc1C
Given back: 632

* * *

Below: a set of entries, each annotated with reported drug sensitivity score.
- System: CAL-120
- METHOD DESCRIPTION: drug sensitivity score (DSS), CellTiter-Blue viability (DSS (AUC-based score)); higher = stronger viability inhibition; extreme values may be limits of the assay
- RECORDED CONDITIONS: incubation time: 72 h
The reply should be a number, written without any unit.

* CCCC(CCC)C(=O)O [Valproic acid] | 0
* C#Cc1cccc(Nc2ncnc3cc(OC)c(OCCCCCCC(=O)NO)cc23)c1 [CUDC-101] | 11.8
* COc1cc(Nc2ncc(F)c(Nc3ccc4c(n3)NC(=O)C(C)(C)O4)n2)cc(OC)c1OC [R406] | 0

For the next question, use this compound.
Asked: What value of drug sensitivity score on CAL-120 does c1ccc(C2CN3CCSC3=N2)cc1 (centres undefined) [Tetramisole] have?
Given back: 0

* * *

- System: MFM-223
- METHOD DESCRIPTION: normalised response (% of control), CellTiter-Glo; higher = more viable cells (100 = DMSO, 0 = benzethonium chloride kill control)
- RECORDED CONDITIONS: incubation time: 72 h
MEASURED ATTRIBUTE: normalised response (%)
Response body: numeric value in %, unit text excluded.

Examples with their reported normalised response follow.
• O=C(c1ccc(OCCN2CCCCC2)cc1)c1c(-c2ccc(O)cc2)sc2cc(O)ccc12 [Raloxifene] (100 nM) = 104
• COc1ccc(C2=N[C@@H](c3ccc(Cl)cc3)[C@@H](c3ccc(Cl)cc3)N2C(=O)N2CCNC(=O)C2)c(OC(C)C)c1 [Nutlin-3] (100 nM) = 102
• C[C@@H]1C=C2C(=O)O[C@@H]3CC[C@H](C1)[C@]23O [Galiellalactone] (500 nM) = 110
• COc1ncc(-c2ccc3nccc(-c4ccnnc4)c3c2)cc1NS(=O)(=O)c1ccc(F)cc1F (10 nM) = 82.7
• Cc1cc(C(C)Nc2ccccc2)c2nc(N3CCOCC3)cc(=O)n2c1 (stereo not drawn) [TGX-221] (100 nM) = 94
• COC1=CC(c2cc3ccccc3[nH]2)=N/C1=C\c1[nH]c(C)cc1C [Obatoclax] (100 nM) = 96.3
• Cn1cnc2c(F)c(Nc3ccc(Br)cc3F)c(C(=O)NOCCO)cc21 [MEK-162] (10 nM) = 99.4

Turning to the following compound.
Asked: Value lookup for normalised response; key = CN(c1ccccc1CNc1nc(Nc2ccc3c(c2)CC(=O)N3)ncc1C(F)(F)F)S(C)(=O)=O (100 nM)
Given back: 95.5

* * *

normalised response: recorded values
- System: BT-549
- METHOD DESCRIPTION: normalised response (% of control), CellTox Green; higher = less cell death (100 = DMSO, 0 = benzethonium chloride kill control)
- RECORDED CONDITIONS: incubation time: 72 h
Report the value in % with no unit label.

Observe how each entry below is paired with its result.
• O=C(c1ccc(OCCN2CCCCC2)cc1)c1c(-c2ccc(O)cc2)sc2cc(O)ccc12 [Raloxifene] (100 nM) = 92.5
• CCOc1cc2ncc(C#N)c(Nc3ccc(OCc4ccccn4)c(Cl)c3)c2cc1NC(=O)/C=C/CN(C)C [Neratinib] (1000 nM) = 101
• O=c1[nH]c(=O)n([C@H]2C[C@H](O)[C@@H](CO)O2)cc1F [Floxuridine] (100 nM) = 114

Asked: Quick one: normalised response for CN1CCN(c2ccc3nc(-c4c(N)c5c(F)cccc5[nH]c4=O)[nH]c3c2)CC1 [Dovitinib] (10000 nM) ?
Given back: 121
